Taken from PubChem BioAssay (NCATS).

Target: Rap guanine nucleotide exchange factor 3 (Homo sapiens) (UniProt O95398)
Sequence (O95398 whole entry, looked up): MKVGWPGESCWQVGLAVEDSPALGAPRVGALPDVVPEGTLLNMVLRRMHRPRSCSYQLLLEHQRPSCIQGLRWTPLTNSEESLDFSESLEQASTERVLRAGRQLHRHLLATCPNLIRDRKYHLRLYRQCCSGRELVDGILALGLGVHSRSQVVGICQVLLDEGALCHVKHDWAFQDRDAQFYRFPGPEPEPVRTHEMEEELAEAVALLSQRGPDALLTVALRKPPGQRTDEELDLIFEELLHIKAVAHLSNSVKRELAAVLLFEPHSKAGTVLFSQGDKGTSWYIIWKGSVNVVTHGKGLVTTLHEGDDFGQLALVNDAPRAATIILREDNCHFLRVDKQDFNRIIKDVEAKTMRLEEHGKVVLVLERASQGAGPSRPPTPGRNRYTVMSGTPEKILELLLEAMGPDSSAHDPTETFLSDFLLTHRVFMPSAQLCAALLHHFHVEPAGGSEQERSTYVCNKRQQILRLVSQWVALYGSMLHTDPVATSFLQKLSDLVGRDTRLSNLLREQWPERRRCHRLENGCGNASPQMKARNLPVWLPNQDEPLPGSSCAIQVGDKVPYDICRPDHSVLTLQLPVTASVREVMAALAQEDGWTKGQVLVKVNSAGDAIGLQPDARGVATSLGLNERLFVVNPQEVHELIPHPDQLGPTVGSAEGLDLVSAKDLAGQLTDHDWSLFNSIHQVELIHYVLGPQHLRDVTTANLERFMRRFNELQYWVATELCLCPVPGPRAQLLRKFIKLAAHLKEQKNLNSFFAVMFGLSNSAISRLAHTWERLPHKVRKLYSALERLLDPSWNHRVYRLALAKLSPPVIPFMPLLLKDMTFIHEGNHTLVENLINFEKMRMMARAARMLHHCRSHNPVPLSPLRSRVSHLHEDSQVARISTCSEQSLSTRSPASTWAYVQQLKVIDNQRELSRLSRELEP
Assay: Confirmatory qHTS for antagonist of cAMP-regulated guanine nucleotide exchange factor 3 (EPAC1) (AID 1645880); note: nearly all actives have a fitted effect of over 55% in size
Details: EPAC1 Rap1B-BODIPY-GDP exchange, fluorescence
Results filed as inconclusive are left out. Calls of active or inactive are those of the source. Calls come from the whole dose curve; as a rule, active = well fitted inhibition curve with a large enough effect; inconclusive = small, poorly fitted or top-dose-only effect; inactive = no such curve, though single readings can be large or run the other way.
Entry note: the call must match one of active, inactive

Consider the worked cases shown below.
O=C1NC(=S)S/C1=C\C=C\c1ccc([N+](=O)[O-])o1 : active
CCOc1ccc(NC(=O)c2ccc(NC(=O)COC(=O)c3ccc(NC(=O)CC#N)cc3)cc2)cc1 : inactive
Cn1nc(-c2ccccc2)c2nc3ccccc3nc21 : inactive

Task: Which outcome was assigned to COCCn1c(SCc2ccccc2F)nc2ccccc2c1=O in this test?
Result: inactive

Task: Lab log entry: O=C(CN1CCCCCC1)Nc1ccccc1Oc1ccccc1 — outcome as called in the assay?
Result: inactive

Task: What was the test verdict on Cc1cc(NC(=O)COC(=O)C(C)Oc2ccc(Cl)cc2Cl)no1 (stereo not given) ?
Result: inactive

Task: I'd appreciate the recorded outcome for COc1ccc(-c2ncccc2OC(=O)C23CC4CC(CC(C4)C2)C3)cc1OC from this test.
Result: inactive

Task: Please state the recorded outcome for this compound: COC(=O)c1cc(Br)c(=O)n(Cc2ccc3c(c2)OCO3)c1
Result: inactive

Task: Test call, this compound: COC(=O)c1cc(NC(=O)CC2SCCNC2=O)cc(C(=O)OC)c1 (stereo not given)
Result: inactive

Task: Status in this test for CCSc1nc(-c2ccccc2)nc2c1CCCC2 ?
Result: inactive

Task: Please let me know the test result on file for Cc1noc(C)c1COc1ccccc1C(=O)NCCc1ccc(Cl)cc1 .
Result: inactive

Task: I would be grateful if you could indicate the recorded call for Cc1ccc2oc(=O)n(Cc3ccc(OC(C)C)cc3)c2c1 .
Result: inactive

---

Target: Rap guanine nucleotide exchange factor 3 (Homo sapiens)
Test: Confirmatory qHTS for antagonist of cAMP-regulated guanine nucleotide exchange factor 3 (EPAC1) (AID 1645880); note: nearly all actives have a fitted effect of over 55% in size
Details: EPAC1 Rap1B-BODIPY-GDP exchange, fluorescence
Inconclusive results are not listed. Activity calls are given as the source filed them. Calls come from the whole dose curve; as a rule, active = well fitted inhibition curve with a large enough effect; inconclusive = small, poorly fitted or top-dose-only effect; inactive = no such curve, though single readings can be large or run the other way.
Hi there, use one of these labels in your reply, thanks! yes = active, no = inactive

Task: Field: outcome | Entry: CCOc1ccc(NC(=O)CSc2nc(-c3cccc(Cl)c3)nc3c2Cc2c(CO)cnc(C)c2O3)cc1
Result: no

Task: Test call, this molecule: COc1ccccc1C(=O)NNC(=O)CCCN1C(=O)/C(=C/c2cccs2)SC1=S
Result: no

---

Biological target: Rap guanine nucleotide exchange factor 3 (Homo sapiens) (UniProt O95398)
Test: Counterscreen qHTS for antagonist of cAMP-regulated guanine nucleotide exchange factor 3 (EPAC1) (AID 1645888);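 note: fluorescence loss as bound BODIPY-GDP is released from Rap1B; % of control where 0% means no effect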
Details: Rap1B-BODIPY-GDP nucleotide exchange, fluorescence; series mostly up to 154 µM
Records with an inconclusive call do not appear. Calls of active or inactive are those of the source. Calls follow the shape of the dose curve; as a rule, active = well fitted inhibition curve with a large enough effect; inconclusive = small, poorly fitted or top-dose-only effect; inactive = no such curve, though single readings can be large or run the other way.
OBSERVED_PROPERTY: activity change, negative = inhibition

Below are worked cases with known answers.
CCOc1cc(/C=N/O)cc(Br)c1OCc1ccc(Cl)cc1 : inactive
CCCCn1c(N)c(N(CCOC)C(=O)c2ccc(-c3ccc(C(C)=O)cc3)o2)c(=O)[nH]c1=O : inactive
Cc1c(CCC(=O)O)c(=O)oc2cc(OCc3ccccc3Br)ccc12 : inactive
O=c1c2cc([N+](=O)[O-])cc([N+](=O)[O-])c2[nH]n1-c1ccccc1 : -31.5% [at 30.8 µM] (inactive)
O=C(C1=C(O)C(=O)N(c2nc3ccc(Cl)cc3s2)C1c1ccco1)c1ccco1 (stereo unspecified) : inactive

State recorded activity change, negative = inhibition for all listed compounds.
1. Cc1oc2cc(Br)c(O)c(Br)c2c1C(=O)c1ccccc1
2. CCOc1ccc(S(=O)(=O)Nc2cc(SCC(=O)O)c(O)c3ccccc23)cc1
3. CC(=O)NS(=O)(=O)c1ccc(Nc2ccc([N+](=O)[O-])c3nonc23)cc1
4. O=c1onc(-c2ccccc2)n1-c1cc(Cl)cc(Cl)c1
5. CCOc1ccccc1OCC(=O)Nc1cc(S(=O)(=O)N2CCCCC2)ccc1N1CCN(CC)CC1
6. OCCCCC#Cc1c(-c2ccsc2)sc2ccccc12
7. COc1ccc2nc3oc(C(=O)Nc4cccc(C(F)(F)F)c4)cc3cc2c1
8. Cc1cc2nc3c(=O)n(Cc4ccccc4)c(=O)[nH]c3nc2cc1N

Result:
1. inactive
2. inactive
3. -18.4% [at 30.8 µM] (inactive)
4. inactive
5. inactive
6. inactive
7. inactive
8. 0.816% [at 30.8 µM] (inactive)

Please supply activity change, negative = inhibition for each of the following items, keeping them in order.
1. Cc1ccc([N+](=O)[O-])cc1NC(=O)c1ccc(-c2ccccc2)cc1
2. CCOC(=O)C1=C(C)N=c2sc(=Cc3cc(Cl)c(OCC(=O)O)c(Cl)c3)c(=O)n2C1c1cccc(OC)c1 (stereo unspecified)
3. COC(=O)c1cc2oc(C)cc2n1Cc1ccc(C)cc1

Result:
inactive
inactive
inactive
